Examples of compounds with documented selectivity ratio follow.
# ASSAY_NAME: Selectivity index, ratio of TC50 for african green monkey (Cercopithecus aethiops) Vero cells to IC50 for Plasmodium falciparum W2
# Type: toxicity, cell-based
The answer should be a number; do not append a unit.

Before answering, review these 2 worked examples.
STRUCTURE_SMILES_STRING	PROPERTY_LABEL	VALUE
C[C@H]1[C@@H](OC/C=C\CO[C@H]2O[C@@H]3O[C@@]4(C)CC[C@H]5[C@H](C)CC[C@@H]([C@H]2C)[C@@]35OO4)O[C@@H]2O[C@@]3(C)CC[C@H]4[C@H](C)CC[C@@H]1[C@@]24OO3	selectivity ratio	116
C[C@H]1[C@@H](O[C@@H](CO[C@H]2O[C@@H]3O[C@@]4(C)CC[C@H]5[C@H](C)CC[C@@H]([C@H]2C)[C@@]35OO4)[C@H](O)CO)O[C@@H]2O[C@@]3(C)CC[C@H]4[C@H](C)CC[C@@H]1[C@@]24OO3	selectivity ratio	59

Could you now look at the following compound, please?
In: Sample C[C@H]1[C@@H](O)O[C@@H]2O[C@@]3(C)CC[C@H]4[C@H](C)CC[C@@H]1[C@@]24OO3 — what was its selectivity ratio?
Out: 100

###

Known selectivity ratio of a selection of molecules
# ASSAY_NAME: Selectivity index, ratio of TC50 for african green monkey (Cercopithecus aethiops) Vero cells to IC50 for Plasmodium falciparum W2
# Assay type: toxicity, cell-based

In: Param item = C=C[C@@H](CO[C@H]1O[C@@H]2O[C@@]3(C)CC[C@H]4[C@H](C)CC[C@@H]([C@H]1C)[C@@]24OO3)O[C@H]1O[C@@H]2O[C@@]3(C)CC[C@H]4[C@H](C)CC[C@@H]([C@H]1C)[C@@]24OO3 ; retrieve measured selectivity ratio.
Out: 30

In: Using the record for C[C@H]1[C@@H](OCc2cc(O)cc(O)c2)O[C@@H]2O[C@@]3(C)CC[C@H]4[C@H](C)CC[C@@H]1[C@@]24OO3 , report its selectivity ratio.
Out: > 567

In: Entry C[C@H]1[C@@H](OC[C@@H](O)[C@@H](O)CO[C@H]2O[C@@H]3O[C@@]4(C)CC[C@H]5[C@H](C)CC[C@@H]([C@H]2C)[C@@]35OO4)O[C@@H]2O[C@@]3(C)CC[C@H]4[C@H](C)CC[C@@H]1[C@@]24OO3 (relative stereo) : reported selectivity ratio = ?
Out: > 1400

In: Would you kindly share the measured selectivity ratio for C[C@H]1[C@@H](OCC[C@H](O)CO[C@H]2O[C@@H]3O[C@@]4(C)CC[C@H]5[C@H](C)CC[C@@H]([C@H]2C)[C@@]35OO4)O[C@@H]2O[C@@]3(C)CC[C@H]4[C@H](C)CC[C@@H]1[C@@]24OO3 ?
Out: > 164

###

# Test system: KB
# ASSAY_NAME: Cytotoxicity against human KB cells after 48 hrs by neutral red assay
# Type: functional, cell-based
# TEST_CONTEXT: Homo sapiens, KB, 48 h; read-out: IC50
PROPERTY_LABEL: pIC50
Units for pIC50: none; it is -log10 of a concentration expressed in mol/L.

MOLECULE	pIC50
C[C@H]1[C@@H](OCC(CO[C@H]2O[C@@H]3O[C@@]4(C)CC[C@H]5[C@H](C)CC[C@@H]([C@H]2C)[C@@]35OO4)OS(C)(=O)=O)O[C@@H]2O[C@@]3(C)CC[C@H]4[C@H](C)CC[C@@H]1[C@@]24OO3 (some centres not stated)	6.55

Note: attention shifts to another entry.
In: Please give the measured pIC50 for this molecule: C[C@H]1[C@@H](OCC[C@@H](CO[C@H]2O[C@@H]3O[C@@]4(C)CC[C@H]5[C@H](C)CC[C@@H]([C@H]2C)[C@@]35OO4)O[C@H]2O[C@@H]3O[C@@]4(C)CC[C@H]5[C@H](C)CC[C@@H]([C@H]2C)[C@@]35OO4)O[C@@H]2O[C@@]3(C)CC[C@H]4[C@H](C)CC[C@@H]1[C@@]24OO3
Out: 6.96

###

Listed molecules paired with reported CC50 at 48 h
# ASSAY_NAME: Toxicity against african green monkey Vero cells after 48 hrs by neutral red assay
# Format: cell-based
# TEST_CONTEXT: chlorocebus sabaeus, Vero cells; read-out: TC50

In: Any idea what CC50 at 48 h was measured for C[C@H]1[C@@H](OC/C=C\CO[C@H]2O[C@@H]3O[C@@]4(C)CC[C@H]5[C@H](C)CC[C@@H]([C@H]2C)[C@@]35OO4)O[C@@H]2O[C@@]3(C)CC[C@H]4[C@H](C)CC[C@@H]1[C@@]24OO3 ?
Out: 180 nM

In: # lookup: CC50 at 48 h of C[C@H]1[C@@H](OCC(=O)CO[C@H]2O[C@@H]3O[C@@]4(C)CC[C@H]5[C@H](C)CC[C@@H]([C@H]2C)[C@@]35OO4)O[C@@H]2O[C@@]3(C)CC[C@H]4[C@H](C)CC[C@@H]1[C@@]24OO3
Out: > 8030 nM

In: # query: CC50 at 48 h of entry C[C@H]1[C@@H](OCC[C@@H](CO[C@H]2O[C@@H]3O[C@@]4(C)CC[C@H]5[C@H](C)CC[C@@H]([C@H]2C)[C@@]35OO4)O[C@H]2O[C@@H]3O[C@@]4(C)CC[C@H]5[C@H](C)CC[C@@H]([C@H]2C)[C@@]35OO4)O[C@@H]2O[C@@]3(C)CC[C@H]4[C@H](C)CC[C@@H]1[C@@]24OO3
Out: > 1100 nM

In: Looking for the measured CC50 at 48 h of C[C@H]1[C@@H](OC[C@@H]2O[C@@H]2CO[C@H]2O[C@@H]3O[C@@]4(C)CC[C@H]5[C@H](C)CC[C@@H]([C@H]2C)[C@@]35OO4)O[C@@H]2O[C@@]3(C)CC[C@H]4[C@H](C)CC[C@@H]1[C@@]24OO3 (relative stereo) , can you help?
Out: > 1570 nM

In: If you can, please state the reported CC50 at 48 h value of C[C@H]1[C@@H](OCC[C@H](O)CO[C@H]2O[C@@H]3O[C@@]4(C)CC[C@H]5[C@H](C)CC[C@@H]([C@H]2C)[C@@]35OO4)O[C@@H]2O[C@@]3(C)CC[C@H]4[C@H](C)CC[C@@H]1[C@@]24OO3 .
Out: > 1570 nM

###

Listed below: CC50 at 48 h values for each entry.
# ASSAY_NAME: Toxicity against pig LLC-PK11 cells after 48 hrs by neutral red assay
# Format: cell-based, Sus scrofa
# TEST_CONTEXT: LLC-PK11 cells, read-out: TC50
Write it as a number; the unit µM goes unstated.

# count of solved cases: 3
COMPOUND	CC50 at 48 h [µM]
CC(=O)O[C@H]1C(=O)[C@@]2(C)[C@H]([C@H](OC(=O)c3ccccc3)[C@]3(O)C[C@H](OC(=O)[C@H](O)[C@@H](NC(=O)c4ccccc4)c4ccccc4)C(C)=C1C3(C)C)[C@]1(OC(C)=O)CO[C@@H]1C[C@@H]2O [PACLITAXEL]	4.39
C[C@H]1[C@@H](OCc2cc(O)cc(O)c2)O[C@@H]2O[C@@]3(C)CC[C@H]4[C@H](C)CC[C@@H]1[C@@]24OO3	2.46
COc1cccc2c1C(=O)c1c(O)c3c(c(O)c1C2=O)C[C@@](O)(C(=O)CO)C[C@@H]3O[C@H]1C[C@H](N)[C@H](O)[C@H](C)O1 [DOXORUBICIN]	1.29

In: Returns the measured CC50 at 48 h for the input compound. Input: C[C@H]1[C@@H](OCC(=O)CO)O[C@@H]2O[C@@]3(C)CC[C@H]4[C@H](C)CC[C@@H]1[C@@]24OO3
Out: 20.8

###

# System: Vero
# ASSAY_NAME: Toxicity against african green monkey Vero cells after 48 hrs by neutral red assay
# Assay type: cell-based
# TEST_CONTEXT: chlorocebus sabaeus, vero, 48 h
PROPERTY_LABEL: TC50

STRUCTURE_SMILES_STRING	ASSAYED_TARGET	VALUE
C[C@H]1[C@@H](OCC(=O)CO)O[C@@H]2O[C@@]3(C)CC[C@H]4[C@H](C)CC[C@@H]1[C@@]24OO3	Vero	Not Active
C[C@H]1[C@@H](Oc2cccc(N[C@@H]3[C@H](C)O[C@@H]4O[C@@]5(C)CC[C@H]6[C@H](C)CC[C@@H]3[C@@]46OO5)c2)O[C@@H]2O[C@@]3(C)CC[C@H]4[C@H](C)CC[C@@H]1[C@@]24OO3	Vero	Not Active
C[C@H]1[C@@H](OC/C=C\CO)O[C@@H]2O[C@@]3(C)CC[C@H]4[C@H](C)CC[C@@H]1[C@@]24OO3	Vero	Not Active

###

# ASSAY_NAME: Selectivity index, ratio of TC50 for african green monkey (Cercopithecus aethiops) Vero cells to IC50 for Plasmodium falciparum D6
# Type: toxicity, cell-based
PROPERTY_LABEL: selectivity ratio
Answer with the value's number alone.

MOLECULE	VALUE
C[C@H]1[C@@H](OCC(O)CO[C@H]2O[C@@H]3O[C@@]4(C)CC[C@H]5[C@H](C)CC[C@@H]([C@H]2C)[C@@]35OO4)O[C@@H]2O[C@@]3(C)CC[C@H]4[C@H](C)CC[C@@H]1[C@@]24OO3 (stereo partly specified)	34
C[C@H]1[C@@H](OCC[C@@H](CO[C@H]2O[C@@H]3O[C@@]4(C)CC[C@H]5[C@H](C)CC[C@@H]([C@H]2C)[C@@]35OO4)O[C@H]2O[C@@H]3O[C@@]4(C)CC[C@H]5[C@H](C)CC[C@@H]([C@H]2C)[C@@]35OO4)O[C@@H]2O[C@@]3(C)CC[C@H]4[C@H](C)CC[C@@H]1[C@@]24OO3	18
C[C@H]1[C@@H](OCC(CO[C@H]2O[C@@H]3O[C@@]4(C)CC[C@H]5[C@H](C)CC[C@@H]([C@H]2C)[C@@]35OO4)OS(C)(=O)=O)O[C@@H]2O[C@@]3(C)CC[C@H]4[C@H](C)CC[C@@H]1[C@@]24OO3 (stereo partly specified)	542

Turning now to a further record.
In: So what does the record say about selectivity ratio for C[C@H]1[C@@H](O[C@@H](CO[C@H]2O[C@@H]3O[C@@]4(C)CC[C@H]5[C@H](C)CC[C@@H]([C@H]2C)[C@@]35OO4)[C@H](O)CO)O[C@@H]2O[C@@]3(C)CC[C@H]4[C@H](C)CC[C@@H]1[C@@]24OO3 ?
Out: 71
